# credit: patent US20260166158A1

Tested on: NCI-H460 tumor-bearing mice (lung cancer)
assay method text: Biodistribution: lutetium accumulation in tumor, plasma and healthy tissues by ICP-MS
Type: in vivo
stated conditions: second table; plasma; 24 h
measurement type: Plasma, % ID/g 24 h
Kindly report the value followed by its unit.

Completed entries (count: 2):
compound	Plasma, % ID/g 24 h
CCNC(=O)c1nnc(-c2cc(C(C)C)c(O)cc2O)n1-c1ccc(CN2CCN(C(=O)C[C@H](NC(=O)CCNC(=O)[C@H](CO)NC(=O)[C@H](CO)NC(=O)[C@H](CO)NC(=O)CC[C@H](C(=O)O)N3CCN4CCN5CCN(CC3)CC(=O)[O][Lu]([O]C(=O)C5)[O]C(=O)C4)C(=O)N[C@H](C)C(=O)N3CCN(Cc4ccc(-n5c(C(=O)NCC)nnc5-c5cc(C(C)C)c(O)cc5O)cc4)CC3)CC2)cc1	1.78 % ID/g
CCNC(=O)c1nnc(-c2cc(C(C)C)c(O)cc2O)n1-c1ccc(CN2CCN(C(=O)CCOCCOCCOCCOCCNC(=O)CN3CCN4CCN5CCN6CC(=O)O[C]6(C3)[Lu]([O]C(=O)C4)[O]C(=O)C5)CC2)cc1 (stereo not drawn)	0.152 % ID/g

Next up:
Answer with the recorded Plasma, % ID/g 24 h of CCNC(=O)c1nnc(-c2cc(C(C)C)c(O)cc2O)n1-c1ccc(CN2CCN(C(=O)CCNC(=O)[C@@H](CCC(=O)O)NC(=O)[C@@H](CCC(=O)O)NC(=O)[C@@H](CCC(=O)O)NC(=O)COCCOCCNC(=O)CCCCn3cc(CN(CCCNC(=O)CC[C@H](C(=O)O)N4CCN5CCN6CC(=O)[O][Lu]([O]C(=O)C5)[C]5(C6)OC(=O)CN5CC4)C(=O)CCCNC(=O)CCCc4ccc(I)cc4)nn3)CC2)cc1 (stereo partly drawn) only.
3.01 % ID/g

---

Item-by-item account of Kidney uptake, % ID/g 24 h
Test system: NCI-H460 tumor-bearing mice (lung cancer)
assay method text: Biodistribution: lutetium accumulation in tumor, plasma and healthy tissues by ICP-MS
Type: in vivo
stated conditions: second table; kidney; 24 h
Provide the measurement as a number trailed by its unit.

For orientation, consider the following solved cases.
compound	value reported
CCNC(=O)c1nnc(-c2cc(C(C)C)c(O)cc2O)n1-c1ccc(OC2CCN(C(=O)CCOCCOCCOCCOCCNC(=O)[C@H](CCCCNC(=O)CCCc3ccc(I)cc3)NC(=O)CN3CCN4CCN5CCN(CC3)CC(=O)[O][Lu]([O]C(=O)C4)[O]C(=O)C5)CC2)cc1 [CMP6]	0.62 % ID/g
CCNC(=O)c1nnc(-c2cc(C(C)C)c(O)cc2O)n1-c1ccc(CC2CCN(C(=O)CCOCCOCCOCCOCCNC(=O)[C@H](CCCCNC(=O)CCCc3ccc(I)cc3)NC(=O)CN(CC)CCN3CCN4CCN(C)CC(=O)[O][Lu]([O]C(=O)C4)[O]C(=O)C3)CC2)cc1 [CMP4]	3.24 % ID/g
CCNC(=O)c1nnc(-c2cc(C(C)C)c(O)cc2O)n1-c1ccc(CC2CCN(C(=O)CCC(=O)N[C@@H](CCCCNC(=O)CN3CCN4CCN5CCN(CC3)CC(=O)[O][Lu]([O]C(=O)C4)[O]C(=O)C5)C(=O)N3CCC(Cc4ccc(-n5c(C(=O)NCC)nnc5-c5cc(C(C)C)c(O)cc5O)cc4)CC3)CC2)cc1 [CMP24]	4.81 % ID/g

--- query ---
Determine its reported Kidney uptake, % ID/g 24 h: CCNC(=O)c1nnc(-c2cc(C(C)C)c(O)cc2O)n1-c1ccc(OC2CCN(C(=O)CCOCCOCCOCCOCCNC(=O)CN3CCN4CCN5CCN(CC3)CC(=O)[O][Lu]([O]C(=O)C4)[O]C(=O)C5)CC2)cc1 [CMP39]
0.48 % ID/g

---

System: NCI-H460 tumor-bearing mice (lung cancer)
assay method text: Biodistribution: lutetium accumulation in tumor, plasma and healthy tissues by ICP-MS
Format: in vivo
stated conditions: 0.5 mg/kg lutetium conjugate; plasma; 72 h
measurement type: % ID/g uptake, Plasma, 72 h
Answers without a unit are incomplete; give the number and then its unit.

Quickly give me recorded % ID/g uptake, Plasma, 72 h for CCNC(=O)c1nnc(-c2cc(C(C)C)c(O)cc2O)n1-c1ccc(CN2CCN(C(=O)CCNC(=O)[C@@H](CCC(=O)N3CCN(Cc4ccc(-n5c(C(=O)NCC)nnc5-c5cc(C(C)C)c(O)cc5O)cc4)CC3)NC(=O)CCNC(=O)[C@@H](CCC(=O)O)NC(=O)[C@@H](CCC(=O)O)NC(=O)[C@@H](CCC(=O)O)NC(=O)COCCOCCNC(=O)CC[C@H](C(=O)O)N3CCN4CCN5CCN(CC3)CC(=O)[O][Lu]([O]C(=O)C5)[O]C(=O)C4)CC2)cc1
0.09 % ID/g

---

System: NCI-H460 tumor-bearing mice (lung cancer)
assay method text: Biodistribution: lutetium accumulation in tumor, plasma and healthy tissues by ICP-MS
Type: in vivo
stated conditions: second table; tumor; 24 h
This section presents molecules with their documented Tumor uptake, % ID/g, 24 h values.
Enter the number, and then the unit.

molecule	target entity	value reported
CCNC(=O)c1nnc(-c2cc(C(C)C)c(O)cc2O)n1-c1ccc(OC2CCN(C(=O)CCOCCOCCOCCOCCNC(=O)CN3CCN4CCN5CCN(CC3)CC(=O)[O][Lu]([O]C(=O)C4)[O]C(=O)C5)CC2)cc1	NCI-H460 tumor-bearing mice (lung cancer)	1.74 % ID/g

Determine its reported Tumor uptake, % ID/g, 24 h: CCNC(=O)c1nnc(-c2cc(C(C)C)c(O)cc2O)n1-c1ccc(OC2CCN(C(=O)CCOCCOCCOCCOCCOCCOCCOCCOCCOCCOCCOCCOCCNC(=O)CN3CCN4CCN5CCN(CC3)CC(=O)[O][Lu]([O]C(=O)C4)[O]C(=O)C5)CC2)cc1
4.39 % ID/g

Give me measured Tumor uptake, % ID/g, 24 h, please, for this molecule: CCNC(=O)c1nnc(-c2cc(C(C)C)c(O)cc2O)n1-c1ccc(C2CN(C(=O)CCOCCOCCOCCOCCOCCOCCOCCOCCOCCOCCOCCOCCNC(=O)CN3CCN4CCN5CCN(CC3)CC(=O)[O][Lu]([O]C(=O)C4)[O]C(=O)C5)C2)cc1
2.52 % ID/g

Using known records, supply Tumor uptake, % ID/g, 24 h for CCNC(=O)c1nnc(-c2cc(C(C)C)c(O)cc2O)n1-c1ccc(CN2CCN(C(=O)CCNC(=O)[C@@H](CCC(=O)O)NC(=O)[C@@H](CCC(=O)O)NC(=O)[C@@H](CCC(=O)O)NC(=O)COCCOCCNC(=O)CCCCn3cc(CN(CCCNC(=O)CC[C@H](C(=O)O)N4CCN5CCN6CC(=O)[O][Lu]([O]C(=O)C5)[C]5(C6)OC(=O)CN5CC4)C(=O)CCCNC(=O)CCCc4ccc(I)cc4)nn3)CC2)cc1 (stereo partly shown)
7.54 % ID/g

---

Tested on: NCI-H460 tumor-bearing mice (lung cancer)
assay method text: Biodistribution: lutetium accumulation in tumor, plasma and healthy tissues by ICP-MS
Type: in vivo
stated conditions: second table; liver; 24 h
Procedure: Lutetium accumulation was measured in tumor, plasma and healthy tissues of NCI-H460 tumor-bearing mice (lung cancer). NCJ-H460 tumor bearing mice were dosed with 0.5 mg/kg of lutetium conjugates. At the time points indicated, mice were sacrificed and tumor, liver, kidneys and plasma were taken. All tissues were analyzed for lutetium content by ICP-MS, and lutetium uptake in % ID/g determined by the following equation: […]
# Liver uptake, % ID/g 24 h listing for each entry below
Respond with the bare value in % ID/g.

// solved cases for Liver uptake, % ID/g 24 h follow
compound	target entity	measurement type	value unit	value reported
CCNC(=O)c1nnc(-c2cc(C(C)C)c(O)cc2O)n1-c1ccc(C2CN(C(=O)CCOCCOCCOCCOCCNC(=O)CN3CCN4CCN5CCN(CC3)CC(=O)[O][Lu]([O]C(=O)C4)[O]C(=O)C5)C2)cc1	NCI-H460 tumor-bearing mice (lung cancer)	Liver uptake, % ID/g 24 h	% ID/g	1.10
CCNC(=O)c1nnc(-c2cc(C(C)C)c(O)cc2O)n1-c1ccc(CN2CCN(C(=O)CCOCCOCCOCCOCCNC(=O)CN3CCN4CCN5CCN6CC(=O)O[C]6(C3)[Lu]([O]C(=O)C4)[O]C(=O)C5)CC2)cc1 (stereo not drawn)	NCI-H460 tumor-bearing mice (lung cancer)	Liver uptake, % ID/g 24 h	% ID/g	0.607

Please indicate Liver uptake, % ID/g 24 h recorded for CCNC(=O)c1nnc(-c2cc(C(C)C)c(O)cc2O)n1-c1ccc(CC2CCN(C(=O)CCOCCOCCOCCOCCOCCOCCOCCOCCOCCOCCOCCOCCNC(=O)[C@H](CCCCNC(=O)CCCc3ccc(I)cc3)NC(=O)CN3CCN4CCN5CCN(CC3)CC(=O)[O][Lu]([O]C(=O)C4)[O]C(=O)C5)CC2)cc1
7.26
